Data origin, for the record: patent US9284323B2

system: HIV-IIIb; assay: Test A: Antiviral Assays in MT4 Cells; type: cell-based; conditions: Human immunodeficiency virus 1, IIIB, MT4, 120 h, Table II; MT-4 cells infected with HIV-IIIb, 5 days incubation, CellTiter-Glo readout
pEC50: −log10 of the molar value.
Property Name: pEC50

These solved cases illustrate the format of a correct answer.
Compound	Experimental Result
Cc1cc2c3c(ccc2c(-c2ccc4c5c(ccnc25)CCO4)c1[C@H](OC(C)(C)C)C(=O)O)COC3 (atropisomer, axis not shown)	7.28
Cc1ccc2c(-c3ccc4c5c(ccnc35)CCO4)c(C(OC(C)(C)CF)C(=O)O)c(C)cc2c1 (centres unmarked)	7.92
Cc1cc2ccccc2c(-c2ccc3c4c(ccnc24)CCO3)c1[C@H](OC(C)(C)CF)C(=O)O (atropisomer, axis not shown)	7.74
COc1c(C)c([C@H](OC(C)(C)C)C(=O)O)c(-c2ccc3c4c(ccnc24)CCO3)c2ccccc12 (atropisomer, axis not shown)	7.36
Cc1cc2ccccc2c(-c2ccc3c4c(ccnc24)CCO3)c1C(OC(C)(C)CF)C(=O)O (centres unmarked)	7.51

[P] Cc1cc2cc(-c3cncnc3)ccc2c(-c2ccc3c4c(ccnc24)CCO3)c1[C@H](OC(C)(C)C)C(=O)O (atropisomer, axis not shown)
[Q] Cc1cc2cc(-c3cnc(N4CCN(C)CC4)nc3)ccc2c(-c2ccc3c4c(ccnc24)CCO3)c1[C@H](OC(C)(C)C)C(=O)O (atropisomer, axis not shown)
In terms of reported pEC50, does P or Q have the smaller number? To answer, give the label that identifies your chosen option.
P

[A] Cc1cc2cc(-c3cnc(N)nc3)ccc2c(-c2ccc3c4c(ccnc24)CCO3)c1[C@H](OC(C)(C)C)C(=O)O (atropisomer, axis not shown)
[B] Cc1ccc2c(-c3ccc4c5c(ccnc35)CCO4)c([C@@H](OC(C)(C)CF)C(=O)O)c(C)cc2c1 (atropisomer, axis not shown)
In terms of reported pEC50, does A or B have the smaller number? To answer, give the label that identifies your chosen option.
B
(B: 5.77, A: 8.12)

[a] Cc1ccc2c(-c3ccc4c5c(ccnc35)CCO4)c([C@H](OC(C)(C)CF)C(=O)O)c(C)cc2c1 (atropisomer, axis not shown)
[b] Cc1cc2ccc(-c3cccc(-c4ccc5c(cnn5C)c4)c3)cc2c(-c2ccc(Cl)cc2)c1[C@H](OC(C)(C)C)C(=O)O
[c] Cc1cc2ccccc2c(-c2ccc3c4c(ccnc24)CCO3)c1[C@H](OC(C)(C)CCCCS(N)(=O)=O)C(=O)O (atropisomer, axis not shown)
[d] Cc1cc2ccccc2c(-c2ccc3c4c(ccnc24)CCO3)c1[C@H](OC(C)(C)CCl)C(=O)O (atropisomer, axis not shown)
[e] CC(=O)Nc1c(C)c([C@H](OC(C)(C)C)C(=O)O)c(-c2ccc3c4c(ccnc24)CCO3)c2ccccc12 (atropisomer, axis not shown)
Given 5 compounds, produce a descending ranking by pEC50. Write the labels out in the order the request specifies.
a, d, e, c, b
(a: 8.06, d: 7.39, e: 6.66, c: 6.41, b: 5.46)

[1] Cc1cc2c(N)cccc2c(-c2ccc3c4c(ccnc24)CCO3)c1[C@H](OC(C)(C)C)C(=O)O (atropisomer, axis not shown)
[2] CCOc1ncc(-c2ccc3c(-c4ccc5c6c(ccnc46)CCO5)c([C@H](OC(C)(C)C)C(=O)O)c(C)cc3c2)c(OCC)n1 (atropisomer, axis not shown)
[3] Cc1cc2ccccc2c(-c2ccc3c4c(ccnc24)CCO3)c1[C@@H](OC(C)(C)CF)C(=O)O (atropisomer, axis not shown)
[4] Cc1cc2ccccc2c(-c2ccc3c4c(ccnc24)CCO3)c1C(OC(C)(C)CCl)C(=O)O (centres unmarked)
Given 4 compounds, produce a descending ranking by pEC50. Write the labels out in the order the request specifies.
1, 2, 4, 3
(1: 7.93, 2: 7.35, 4: 6.79, 3: 5.32)

---

test system: HIV-IIIb; assay: Test A: Antiviral Assays in MT4 Cells; assay type: cell-based; settings: Table II; MT-4 cells infected with HIV-IIIb, 5 days incubation, CellTiter-Glo readout
pEC50: −log10 of the molar value.
Property Name: pEC50

These solved cases illustrate the format of a correct answer.
Compound	pEC50
Cc1cc2cc(-c3ccc4c(cnn4C)c3)ccc2c(-c2ccc3c4c(ccnc24)CCO3)c1[C@H](OC(C)(C)C)C(=O)O (atropisomer, axis not shown) [Example 44]	7.25
Cc1cc2c(C)c(-c3cnc(N)nc3)ccc2c(-c2ccc3c4c(ccnc24)CCO3)c1[C@H](OC(C)(C)C)C(=O)O [Example 74]	4.42
Cc1cc2cc(-c3ccc(-c4cncnc4)cc3)ccc2c(-c2ccc3c4c(ccnc24)CCO3)c1[C@H](OC(C)(C)C)C(=O)O (atropisomer, axis not shown) [Example 40]	6.27

[A] Cc1cc2c(C)c(-c3cncnc3)ccc2c(-c2ccc3c4c(ccnc24)CCO3)c1[C@H](OC(C)(C)C)C(=O)O (atropisomer, axis not shown) [Example 81]
[B] Cc1cc2cc(C#Cc3cncnc3)ccc2c(-c2ccc3c4c(ccnc24)CCO3)c1[C@H](OC(C)(C)C)C(=O)O (atropisomer, axis not shown) [Example 42]
[C] Cc1cc2cc(-c3cncnc3N)ccc2c(-c2ccc3c4c(ccnc24)CCO3)c1[C@H](OC(C)(C)C)C(=O)O (atropisomer, axis not shown) [Example 54]
Given 3 compounds, produce a descending ranking by pEC50. Write the labels out in the order the request specifies.
A, C, B
(A: 5.47, C: 4.71, B: 4.27)

---

system: HIV-IIIb; assay: Test A: Antiviral Assays in MT4 Cells; assay type: cell-based; details: Table II; MT-4 cells infected with HIV-IIIb, 5 days incubation, CellTiter-Glo readout
pEC50: −log10 of the molar value.
Property Name: pEC50

These solved cases illustrate the format of a correct answer.
Compound	pEC50
Cc1cc2ccccc2c(-c2ccc3c4c(ccnc24)CCO3)c1[C@H](OC(C)(C)CCF)C(=O)O (atropisomer, axis not shown) [Example 96]	5.19
Cc1cc2c(C)c(-c3cncnc3)ccc2c(-c2ccc3c4c(ccnc24)CCO3)c1[C@H](OC(C)(C)C)C(=O)O (atropisomer, axis not shown) [Example 80]	7.68
Cc1cc2cccc(F)c2c(-c2ccc3c4c(ccnc24)CCO3)c1[C@H](OC(C)(C)C)C(=O)O (atropisomer, axis not shown) [Example 68]	5.53
Cc1cc2cc(-c3c(C)ncnc3C)ccc2c(-c2ccc3c4c(ccnc24)CCO3)c1[C@H](OC(C)(C)C)C(=O)O (atropisomer, axis not shown) [Example 59]	6.33

[a] CC(C)(C)O[C@H](C(=O)O)c1c(-c2ccc3c4c(ccnc24)CCO3)c2ccccc2c2occc12 (atropisomer, axis not shown) [Example 76]
[b] Cc1cc2cc(-c3ccc(-c4cncnc4)cc3)ccc2c(-c2ccc3c4c(ccnc24)CCO3)c1[C@H](OC(C)(C)C)C(=O)O (atropisomer, axis not shown) [Example 41]
[c] CC(C)(C)O[C@H](C(=O)O)c1c(-c2ccc3c4c(ccnc24)CCO3)c2ccccc2c2occc12 (atropisomer, axis not shown) [Example 77]
[d] Cc1cc2c(C)c(-c3cnc(N(C)C)nc3)ccc2c(-c2ccc3c4c(ccnc24)CCO3)c1[C@H](OC(C)(C)C)C(=O)O (atropisomer, axis not shown) [Example 73]
Given 4 compounds, produce a descending ranking by pEC50. Write the labels out in the order the request specifies.
d, b, a, c

---

test system: HIV-IIIb; experiment: Test A: Antiviral Assays in MT4 Cells; assay type: cell-based; details: Human immunodeficiency virus 1, IIIB, MT4, 120 h, Table II; MT-4 cells infected with HIV-IIIb, 5 days incubation, CellTiter-Glo readout
pEC50: −log10 of the molar value.
Property Name: pEC50

Molecule	pEC50
Cc1c([C@H](OC(C)(C)C)C(=O)O)c(-c2ccc3c4c(ccnc24)CCO3)c2ccccc2c1O (atropisomer, axis not shown) [Example 83]	7.83

[A] Cc1cc2cc(-c3cnc(N4CCCC4)nc3)ccc2c(-c2ccc3c4c(ccnc24)CCO3)c1[C@H](OC(C)(C)C)C(=O)O (atropisomer, axis not shown) [Example 51]
[B] CC(C)(C)O[C@H](C(=O)O)c1c(-c2ccc3c4c(ccnc24)CCO3)c2ccccc2c2[nH]ncc12 (atropisomer, axis not shown) [Example 90]
[C] Cc1cc2ccccc2c(-c2ccc3c4c(ccnc24)CCO3)c1[C@@H](OC(C)(C)CCl)C(=O)O (atropisomer, axis not shown) [Example 98]
[D] Cc1cc2c(C(F)F)c(C)ccc2c(-c2ccc3c4c(ccnc24)CCO3)c1[C@H](OC(C)(C)C)C(=O)O (atropisomer, axis not shown) [Example 70]
[E] Cc1cc2cc(-c3cncnc3C(C)C)ccc2c(-c2ccc3c4c(ccnc24)CCO3)c1[C@H](OC(C)(C)C)C(=O)O (atropisomer, axis not shown) [Example 62]
Given 5 molecules, produce a descending ranking by pEC50. Write the labels out in the order the request specifies.
D, A, E, B, C

---

test system: HIV-IIIb; assay: Test A: Antiviral Assays in MT4 Cells; format: cell-based; conditions: Table II; MT-4 cells infected with HIV-IIIb, 5 days incubation, CellTiter-Glo readout
pEC50: −log10 of the molar value.
Property Name: pEC50

Compound	System Under Test	pEC50
Cc1cc2cc(-c3cnc(-c4cncnc4)nc3)ccc2c(-c2ccc3c4c(ccnc24)CCO3)c1[C@H](OC(C)(C)C)C(=O)O (atropisomer, axis not shown) [Example 38]	HIV-IIIb	7.34

[a] CC(C)(C)O[C@H](C(=O)O)c1c2c(c3ccccc3c1-c1ccc3c4c(ccnc14)CCO3)CCC2 (atropisomer, axis not shown) [Example 33]
[b] Cc1cc2cc(-c3cnc(-c4ccccc4)nc3)ccc2c(-c2ccc3c4c(ccnc24)CCO3)c1[C@H](OC(C)(C)C)C(=O)O (atropisomer, axis not shown) [Example 36]
Which one would you say has the larger pEC50 value: a , or b ? To answer, give the label that identifies your chosen option.
b
